- target.desc: Progesterone receptor (Rattus norvegicus)
- test.name: Relative binding affinity for progesterone receptor in a competitive radiometric binding assay relative to the affinity of R5020 as tracer
Decide by relative binding affinity (RBA): equal to or exceeding 2 means 1, less means -1.

CC(=O)[C@H]1CC[C@H]2[C@@H]3CCC4=CC(=O)CC[C@]4(C)[C@H]3CC[C@]12C : 1
CC(=O)[C@@]12OC(C)(c3ccc(I)cc3)O[C@@H]1CC1C3CCC4=CC(=O)CC[C@]4(C)C3CC[C@@]12C (stereo partly specified) : 1
CC(=O)[C@@]12OC(C)(c3ccc(N=[N+]=[N-])c(I)c3)O[C@@H]1CC1C3CCC4=CC(=O)CC[C@]4(C)C3CC[C@@]12C (stereo partly specified) : 1
CC(=O)[C@@]12OC(C)(c3ccc(N=[N+]=[N-])cc3)O[C@@H]1CC1C3CCC4=CC(=O)CC[C@]4(C)C3CC[C@@]12C (stereo in doubt; 7) : -1
CC(=O)[C@@]12OC(C)(c3ccccc3)O[C@@H]1C[C@H]1[C@@H]3CCC4=CC(=O)CC[C@]4(C)[C@H]3CC[C@@]12C (stereo in doubt; 16) : 1

State whether the measured relative binding affinity (RBA) reaches 2, counting equality as reaching it, for CC(=O)[C@@]12OC(C)(c3ccc(N=C=S)cc3)O[C@@H]1CC1C3CCC4=CC(=O)CC[C@]4(C)C3CC[C@@]12C (stereo partly specified) -1

State whether the measured relative binding affinity (RBA) reaches 2, counting equality as reaching it, for CC(=O)[C@@]12OC(C)(c3ccc(N=[N+]=[N-])cc3)O[C@@H]1CC1C3CCC4=CC(=O)CC[C@]4(C)C3CC[C@@]12C (stereo in doubt; 6) 1

State whether the measured relative binding affinity (RBA) reaches 2, counting equality as reaching it, for CC(=O)[C@@]12OC(C)(c3ccc(N)cc3)O[C@@H]1CC1C3CCC4=CC(=O)CC[C@]4(C)C3CC[C@@]12C (stereo partly specified) -1

State whether the measured relative binding affinity (RBA) reaches 2, counting equality as reaching it, for CC(=O)[C@@]12OC(C)(c3ccc(F)cc3)O[C@@H]1CC1C3CCC4=CC(=O)CC[C@]4(C)C3CC[C@@]12C (stereo in doubt; 10) 1

State whether the measured relative binding affinity (RBA) reaches 2, counting equality as reaching it, for CC(=O)[C@@]12OC(C)(c3c(F)c(F)c(N=[N+]=[N-])c(F)c3F)O[C@@H]1CC1C3CCC4=CC(=O)CC[C@]4(C)C3CC[C@@]12C (stereo partly specified) 1

====

- target.desc: Mineralocorticoid receptor (Rattus norvegicus)
- test.name: Relative binding affinity for the rat kidney mineralocorticoid receptor (MR) relative to the affinity of aldosterone as tracer
Collected relative binding affinity (RBA) values appear next to each entry.

Examples from the recorded data:
CC(=O)[C@@]12OC(C)(c3c(F)c(F)c(F)c(F)c3F)O[C@@H]1CC1C3CCC4=CC(=O)CC[C@]4(C)C3CC[C@@]12C (stereo partly drawn) : 0.65
CC(=O)[C@@]12OC(C)(c3c(F)c(F)c(N=[N+]=[N-])c(F)c3F)O[C@@H]1CC1C3CCC4=CC(=O)CC[C@]4(C)C3CC[C@@]12C (stereo partly drawn) : 0.95
CC(=O)[C@@]12OC(C)(c3ccc(N=[N+]=[N-])cc3)O[C@@H]1CC1C3CCC4=CC(=O)CC[C@]4(C)C3CC[C@@]12C (stereo in doubt; 6) : 0.13
CC(=O)[C@@]12OC(C)(c3ccccc3)O[C@@H]1C[C@H]1[C@@H]3CCC4=CC(=O)CC[C@]4(C)[C@H]3CC[C@@]12C (stereo in doubt; 16) : 1.6
CC(=O)[C@@]12OC(C)(c3ccc(N=C=S)cc3)O[C@@H]1CC1C3CCC4=CC(=O)CC[C@]4(C)C3CC[C@@]12C (stereo partly drawn) : 0.09

Return relative binding affinity (RBA) for the following molecule: CC(=O)[C@@]12OC(C)(c3ccc(I)cc3)O[C@@H]1CC1C3CCC4=CC(=O)CC[C@]4(C)C3CC[C@@]12C (stereo partly drawn) 0.13

Return relative binding affinity (RBA) for the following molecule: CC(=O)[C@@]12OC(C)(c3ccc(C(=O)c4ccccc4)cc3)O[C@@H]1CC1C3CCC4=CC(=O)CC[C@]4(C)C3CC[C@@]12C (stereo partly drawn) < 0.003

Return relative binding affinity (RBA) for the following molecule: CC(=O)[C@@]12OC(C)(c3ccc(F)cc3)O[C@@H]1CC1C3CCC4=CC(=O)CC[C@]4(C)C3CC[C@@]12C (stereo in doubt; 10) 6

====

Collected relative binding affinity (RBA) values appear next to each entry.
- target.desc: Progesterone receptor (Rattus norvegicus) (UniProt Q63449)
- Sequence (Q63449 whole entry): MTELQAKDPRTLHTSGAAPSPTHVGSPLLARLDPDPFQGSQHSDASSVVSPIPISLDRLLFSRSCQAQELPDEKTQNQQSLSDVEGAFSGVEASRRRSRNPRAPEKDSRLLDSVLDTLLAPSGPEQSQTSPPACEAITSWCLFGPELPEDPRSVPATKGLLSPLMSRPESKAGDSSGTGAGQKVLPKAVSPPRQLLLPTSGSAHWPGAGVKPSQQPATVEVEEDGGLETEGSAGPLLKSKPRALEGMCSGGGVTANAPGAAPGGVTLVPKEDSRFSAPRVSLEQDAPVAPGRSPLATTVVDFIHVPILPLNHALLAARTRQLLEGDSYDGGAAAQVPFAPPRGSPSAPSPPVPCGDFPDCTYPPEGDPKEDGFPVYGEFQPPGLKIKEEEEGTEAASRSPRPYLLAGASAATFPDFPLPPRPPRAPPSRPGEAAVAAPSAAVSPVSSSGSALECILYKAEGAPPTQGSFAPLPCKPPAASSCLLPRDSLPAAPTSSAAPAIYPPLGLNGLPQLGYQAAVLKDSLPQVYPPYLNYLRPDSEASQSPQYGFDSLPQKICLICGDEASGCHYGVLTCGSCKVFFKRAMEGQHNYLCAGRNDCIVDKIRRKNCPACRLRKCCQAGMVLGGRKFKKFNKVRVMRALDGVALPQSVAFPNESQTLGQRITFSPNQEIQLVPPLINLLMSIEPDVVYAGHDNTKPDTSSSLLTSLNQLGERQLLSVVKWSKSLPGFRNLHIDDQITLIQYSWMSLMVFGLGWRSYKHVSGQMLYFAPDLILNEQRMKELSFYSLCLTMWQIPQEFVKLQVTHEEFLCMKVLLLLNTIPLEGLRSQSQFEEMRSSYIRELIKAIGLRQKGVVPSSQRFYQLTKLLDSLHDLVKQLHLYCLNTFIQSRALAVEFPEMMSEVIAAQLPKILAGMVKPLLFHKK
- test.name: Relative binding affinity for progesterone receptor in a competitive radiometric binding assay relative to the affinity of R5020 as tracer
Output spec: single numeric token, no unit.

Examples from the recorded data:
CC(=O)[C@@]12OC(C)(C)O[C@@H]1C[C@H]1[C@@H]3CCC4=CC(=O)CC[C@]4(C)[C@H]3CC[C@@]12C : 2
CC(=O)[C@@]12OC(C)(c3ccccc3)O[C@@H]1C[C@H]1[C@@H]3CCC4=CC(=O)CC[C@]4(C)[C@H]3CC[C@@]12C (stereo in doubt; 17) : 1.2
CC(=O)[C@@]12OC(C)(c3c(F)c(F)c(F)c(F)c3F)O[C@@H]1CC1C3CCC4=CC(=O)CC[C@]4(C)C3CC[C@@]12C (stereo partly specified) : 20
CC(=O)[C@@]12OC(C)(c3ccco3)OC1CC1C3CCC4=CC(=O)CC[C@]4(C)C3CC[C@@]12C (stereo partly specified) : 5.5
CC(=O)[C@@]12OC(C)(c3ccc(C(=O)c4ccccc4)cc3)O[C@@H]1CC1C3CCC4=CC(=O)CC[C@]4(C)C3CC[C@@]12C (stereo partly specified) : 6.6

Note: attention shifts to another entry.
Return relative binding affinity (RBA) for the following compound: CC(=O)[C@@]12OC(C)(c3ccc(F)cc3)O[C@@H]1CC1C3CCC4=CC(=O)CC[C@]4(C)C3CC[C@@]12C (stereo in doubt; 11) 0.56
